FYI, the data here is from the RNAGym collection of RNA variant scans (doi:10.7554/elife.80360).

Hi there, I'd appreciate the recorded self-cleavage for every entry that follows.
B1: HDV Ribozyme (parent)
chain: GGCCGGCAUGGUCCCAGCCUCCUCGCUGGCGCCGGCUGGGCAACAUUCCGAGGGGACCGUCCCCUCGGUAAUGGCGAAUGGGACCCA

Variants of: B1
Experiment: self-cleavage, relative activity (ratio to wild type); higher = more cleavage; co-transcriptional
Lab note: jot down the number only; don't add units.

Prompt line: What value of self-cleavage has been recorded for this entry: GGCCGGCAUGGUCCCAGCGUCCGCGCUGGCGCCGGCUGGGCAACAUUCCGAGGGGACCGUCCCCUCGGUAAUGGCGAAUGGGACCCA [C19G U23G]
Response line: 0.0811

Prompt line: What value of self-cleavage has been recorded for this entry: GGCCGGCAUGGUCCCAGCCUCCUCGCUGGCGCCGGCUGGACAACAUUCCGAGGGGACCGUCCCCUCGGUAAUGGCGAAUGGGAGCCA [G40A C84G]
Response line: 0.594

Prompt line: What value of self-cleavage has been recorded for this entry: GGCCGGCAUGGUCCCAGCCUCCUCGCUGGCGCCGGCUGGGCAACAUUCCGAGGGGUCCGUCCCUUCGGUAAUGGCGAAUGGGACCCA [A56U C64U]
Response line: 1.07

Prompt line: What value of self-cleavage has been recorded for this entry: GGCCGGCAUGGUCCCAGCCUCCUCGCUGGCGCCGGCAGGGCAACAUUCUGAGGGGACCGUCCCCUCGGUAAUGGCGAAUGGGACCCA [U37A C49U]
Response line: 0.155

Prompt line: What value of self-cleavage has been recorded for this entry: GGCCGGCAUGGUCCCAGCCUCCUCGAUGGCGCCGGCUGGGCAACAUUCCGAAGGGACCGUCCCCUCGGUAAUGGCGAAUGGGACCCA [C26A G52A]
Response line: 1.06

Prompt line: What value of self-cleavage has been recorded for this entry: GGCCGGCAUGGCCCCAGCCUCCUCGCUGGCGCCGGCUGGGCAACAUUCCGAGGGGACCGUCCGCUCGGUAAUGGCGAAUGGGACCCA [U12C C63G]
Response line: 0.123

Prompt line: What value of self-cleavage has been recorded for this entry: GGCCGGCAUGGUACCAGCCUCCUCGCUGGCGCCGGCUGGGCACCAUUCCGAGGGGACCGUCCCCUCGGUAAUGGCGAAUGGGACCCA [C13A A43C]
Response line: 0.135

Prompt line: What value of self-cleavage has been recorded for this entry: GGCCGGCAUGGUCCCAGCCUCCUCGCUGGCGCCGGCUGGGCAUCAUUCCGAGAGGACCGUCCCCUCGGUAAUGGCGAAUGGGACCCA [A43U G53A]
Response line: 0.407

Prompt line: What value of self-cleavage has been recorded for this entry: GGCCGGCAUGGUCCCAGCCUCCUCGCUGGCGGCGGCUGGGCAACAUUCCGAGGGGACCGUCCCCUCGGUAAUGGCGAAUGGGACCCU [C32G A87U]
Response line: 0.135

Prompt line: What value of self-cleavage has been recorded for this entry: GGCCGGCAUGGUCCCAGCCUCCUCGCUGGCGCAGGCUGGGCAACAUUCCGAGGGGACCGUCCGCUCGGUAAUGGCGAAUGGGACCCA [C33A C63G]
Response line: 0.283

Prompt line: What value of self-cleavage has been recorded for this entry: GGCCGGCAUGGUCCCAGCCUCCUCGCUGGCGCCGGCUGGGCACCAUUCCGAGGGGACCGUCCCCUCGGUGAUGGCGAAUGGGACCCA [A43C A70G]
Response line: 0.643

Prompt line: What value of self-cleavage has been recorded for this entry: GGCCGGCAUGGUCCCAGCCUCCUCGCUGGCGCCGGCUUGGCAACAUUCCGAGGGGACCGUCCCGUCGGUAAUGGCGAAUGGGACCCA [G38U C64G]
Response line: 0.177

Prompt line: What value of self-cleavage has been recorded for this entry: GGCCGGCAUGGUCCCAGCCUCCUCGCUGGGGCCGGCUGGGCAACAUUCCGAAGGGACCGUCCCCUCGGUAAUGGCGAAUGGGACCCA [C30G G52A]
Response line: 0.0287

Prompt line: What value of self-cleavage has been recorded for this entry: GGCCGGCAUGGUUCCAGCCUCCUCGCUGGCGCCGGCUGGGCAACAUUCCGAGGGGACCAUCCCCUCGGUAAUGGCGAAUGGGACCCA [C13U G59A]
Response line: 0.763

Prompt line: What value of self-cleavage has been recorded for this entry: GGCCGGCAUGGUCCCAGCCUCCUCGCUAGCGCCGGCUGGGCAACAUUCCGAGGGGACCGUCCCCUCGGUAAUGGCGAAUGGGACCCC [G28A A87C]
Response line: 0.0676

Prompt line: What value of self-cleavage has been recorded for this entry: UGCCGGCAUGGUCCCAGCCUCCUCGCUGGCGCCGGCUGGGCAACAUUCCGUGGGGACCGUCCCCUCGGUAAUGGCGAAUGGGACCCA [G1U A51U]
Response line: 0.462

Prompt line: What value of self-cleavage has been recorded for this entry: GGCCGGCAUGGUCCCAGCCUCCUCGCUGGCGCCGGCUGGGCAAGAUUCUGAGGGGACCGUCCCCUCGGUAAUGGCGAAUGGGACCCA [C44G C49U]
Response line: 0.617

Prompt line: What value of self-cleavage has been recorded for this entry: GGCCGGCAUGGUCCCAGCCUCCUCGCUGGCGCCGGCUGGGCAACAUUCCGAGGGGAUCGUCCCCUCGGUAAGGGCGAAUGGGACCCA [C57U U72G]
Response line: 0.587

Prompt line: What value of self-cleavage has been recorded for this entry: GGCCGGCAUGGUCCCAGCCUCCUCGCUGGCCCGGGCUGGGCAACAUUCCGAGGGGACCGUCCCCUCGGUAAUGGCGAAUGGGACCCA [G31C C33G]
Response line: 0.0852

Prompt line: What value of self-cleavage has been recorded for this entry: GGCCGGCAUGGUCCCAGCCUCCUCGCUGGCGCCGGCUGGGCAACAUUCCGAGGGGACCGUCCCCUCGGUAAUGGCGACUGGGACCCG [A78C A87G]
Response line: 0.127

Prompt line: What value of self-cleavage has been recorded for this entry: GGCCGGCAUGGUCCCAGCCUCCUCGCUUGCGCCGGCUCGGCAACAUUCCGAGGGGACCGUCCCCUCGGUAAUGGCGAAUGGGACCCA [G28U G38C]
Response line: 0.0665

Prompt line: What value of self-cleavage has been recorded for this entry: GGCCGGCAUGGUCCCAGCCUCCUCGCUCGCGCCGGGUGGGCAACAUUCCGAGGGGACCGUCCCCUCGGUAAUGGCGAAUGGGACCCA [G28C C36G]
Response line: 0.0773

Prompt line: What value of self-cleavage has been recorded for this entry: GGCCGGCAUGGUCCCAGCCUACUCGCUGGCGCCGGCUGGGCAACAUUCCGUGGGGACCGUCCCCUCGGUAAUGGCGAAUGGGACCCA [C21A A51U]
Response line: 0.0369

Prompt line: What value of self-cleavage has been recorded for this entry: GGCCGGCAUGGUCCCAGCCUCCUCGCUGGCGCCGGCUGGGCAACAUUCCGAGGGGACCGUCCCCCCGGUAAUGGCAAAUGGGACCCA [U65C G76A]
Response line: 0.918

Prompt line: What value of self-cleavage has been recorded for this entry: GGCCGGCAGGGUCCCAGCCUCCUCGCUGGCGCCGGCUGGGCAAUAUUCCGAGGGGACCGUCCCCUCGGUAAUGGCGAAUGGGACCCA [U9G C44U]
Response line: 0.443

Prompt line: What value of self-cleavage has been recorded for this entry: GGCCGGCAUGGUCCCAGCCUCCUCGGUGGCGCCGGCUGGGAAACAUUCCGAGGGGACCGUCCCCUCGGUAAUGGCGAAUGGGACCCA [C26G C41A]
Response line: 1.04

Prompt line: What value of self-cleavage has been recorded for this entry: GGCCGGCAUGGUCCCAGCCUCCUCGUUGGCGCCGGCUGGGCAACAUUCCGAGGGAACCGUCCCCUCGGUAAUGGCGAAUGGGACCCA [C26U G55A]
Response line: 1.05

Prompt line: What value of self-cleavage has been recorded for this entry: GGCCGGCAUGGUCCCAACCUCCUCGCUGGCGCCGGCUGGGCAACAUUCCGAGGGGACCGUCGCCUCGGUAAUGGCGAAUGGGACCCA [G17A C62G]
Response line: 0.633

Prompt line: What value of self-cleavage has been recorded for this entry: GGCCGGCAUGGUCCCAGCCUCCUCGCUGGCGCCGGCUGGGCAACAUUCCGAGGGGACCGUACCCUCGGUAAUGGCGAAUGGGACCCG [C61A A87G]
Response line: 1

Prompt line: What value of self-cleavage has been recorded for this entry: GGCCGGCAUGAUCCCAGCCUCCUCGCUGACGCCGGCUGGGCAACAUUCCGAGGGGACCGUCCCCUCGGUAAUGGCGAAUGGGACCCA [G11A G29A]
Response line: 0.0633

Prompt line: What value of self-cleavage has been recorded for this entry: GGCCGGCAUGGUGCCAGCCUCCUCGCUGGCGCCGGCUGGGCAACAUUCCGAGGGGACCGUCCCCUCGGUAAUGGCGAAUGUGACCCA [C13G G81U]
Response line: 0.0475
